Provenance of the data: ChEMBL document CHEMBL5291721

Target: Muscarinic acetylcholine receptor M2 (Homo sapiens, UniProt P08172); also: assay procedure not described here
Sequence (P08172 whole entry): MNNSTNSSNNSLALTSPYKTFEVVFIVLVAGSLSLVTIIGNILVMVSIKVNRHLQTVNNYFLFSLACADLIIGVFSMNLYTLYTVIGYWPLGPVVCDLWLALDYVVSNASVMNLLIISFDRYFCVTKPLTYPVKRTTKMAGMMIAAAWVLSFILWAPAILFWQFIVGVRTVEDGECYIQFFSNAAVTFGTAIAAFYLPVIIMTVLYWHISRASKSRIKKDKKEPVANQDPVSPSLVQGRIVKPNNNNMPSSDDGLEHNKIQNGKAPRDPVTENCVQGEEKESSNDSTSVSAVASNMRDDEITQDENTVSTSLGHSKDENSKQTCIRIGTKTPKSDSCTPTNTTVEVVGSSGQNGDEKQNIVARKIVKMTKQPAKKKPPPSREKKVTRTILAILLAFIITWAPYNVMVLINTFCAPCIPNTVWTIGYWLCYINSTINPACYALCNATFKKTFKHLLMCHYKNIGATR
# AC50 listing for each entry below

Consider the reported AC50 for these compounds:
CCOc1ccc(/C=C2\NCCc3cc(OCC)c(OCC)cc32)cc1OCC | 28.4 µM
NC(=O)c1cnccn1 [PYRAZINAMIDE] | > 30 µM
CCO[C@@H](Cc1ccc(OCCn2c(C)ccc2-c2ccc(SC)cc2)cc1)C(=O)O | > 30 µM
OCCN1CCN(CCCN2c3ccccc3C=Cc3ccccc32)CC1 | 9.58 µM
CCN(CC)CCNc1ccc(C)c2sc3ccccc3c(=O)c12 | 2.36 µM

Fill in: Muscarinic acetylcholine receptor M2 (Homo sapiens, UniProt P08172) AC50 for "Cc1nc(-c2ccc(OCC(C)C)c(C#N)c2)sc1C(=O)O" = > 30 µM

Fill in: Muscarinic acetylcholine receptor M2 (Homo sapiens, UniProt P08172) AC50 for COc1cc(NCc2ccc3nc(N)nc(N)c3c2C)cc(OC)c1OC [TRIMETREXATE] = 3.6 µM

Fill in: Muscarinic acetylcholine receptor M2 (Homo sapiens, UniProt P08172) AC50 for O=C(Nc1ccccc1)OCC(CN1CCCCC1)OC(=O)Nc1ccccc1 (configuration not stated) = > 30 µM

Fill in: Muscarinic acetylcholine receptor M2 (Homo sapiens, UniProt P08172) AC50 for CCC(Cc1c(I)cc(I)c(N)c1I)C(=O)O (configuration not stated) = > 30 µM

Fill in: Muscarinic acetylcholine receptor M2 (Homo sapiens, UniProt P08172) AC50 for CCOC(=O)C(c1c(O)c2ccccc2oc1=O)c1c(O)c2ccccc2oc1=O [ETHYL BISCOUMACETATE] = > 30 µM

Fill in: Muscarinic acetylcholine receptor M2 (Homo sapiens, UniProt P08172) AC50 for "NC(=O)c1cccc2cn(-c3ccc([C@@H]4CCCNC4)cc3)nc12" = 14.4 µM

Fill in: Muscarinic acetylcholine receptor M2 (Homo sapiens, UniProt P08172) AC50 for CC(=O)OC[C@H]1O[C@@H](n2ccc(=O)[nH]c2=O)[C@H](OC(C)=O)[C@@H]1OC(C)=O [URIDINE TRIACETATE] = > 30 µM

Fill in: Muscarinic acetylcholine receptor M2 (Homo sapiens, UniProt P08172) AC50 for "CN(C)C(=O)Oc1ccc[n+](C)c1" = > 30 µM

Fill in: Muscarinic acetylcholine receptor M2 (Homo sapiens, UniProt P08172) AC50 for "CC[C@@]1(O)C[C@H](O[C@H]2C[C@H](N(C)C)[C@H](O[C@H]3C[C@H](O)[C@H](O[C@H]4CCC(=O)[C@H](C)O4)[C@H](C)O3)[C@H](C)O2)c2c(cc3c(c2O)C(=O)c2c(O)cccc2C3=O)[C@H]1C(=O)OC" = > 30 µM

Fill in: Muscarinic acetylcholine receptor M2 (Homo sapiens, UniProt P08172) AC50 for "Nc1nc2ccc(OC(F)(F)F)cc2s1" = > 30 µM

Fill in: Muscarinic acetylcholine receptor M2 (Homo sapiens, UniProt P08172) AC50 for NCc1ccccc1CC(=O)N[C@@H]1C(=O)N2C(C(=O)O)=C(CSc3nnnn3CC(=O)O)CS[C@H]12 [CEFORANIDE] = > 30 µM

Fill in: Muscarinic acetylcholine receptor M2 (Homo sapiens, UniProt P08172) AC50 for "O=C1c2ccccc2C(=O)C1C(=O)C(c1ccccc1)c1ccccc1" = > 30 µM
